Attribute: pIC50
Molecular target: various mutants of kinase EGFR (BaF3 cell lines stably transfected with kinase) (Homo sapiens, UniProt P00533, L858R/T790M)
Construct: expressed in transfected cells; host or cells: BaF3
Sequence (P00533 25-1210 T790M/L858R): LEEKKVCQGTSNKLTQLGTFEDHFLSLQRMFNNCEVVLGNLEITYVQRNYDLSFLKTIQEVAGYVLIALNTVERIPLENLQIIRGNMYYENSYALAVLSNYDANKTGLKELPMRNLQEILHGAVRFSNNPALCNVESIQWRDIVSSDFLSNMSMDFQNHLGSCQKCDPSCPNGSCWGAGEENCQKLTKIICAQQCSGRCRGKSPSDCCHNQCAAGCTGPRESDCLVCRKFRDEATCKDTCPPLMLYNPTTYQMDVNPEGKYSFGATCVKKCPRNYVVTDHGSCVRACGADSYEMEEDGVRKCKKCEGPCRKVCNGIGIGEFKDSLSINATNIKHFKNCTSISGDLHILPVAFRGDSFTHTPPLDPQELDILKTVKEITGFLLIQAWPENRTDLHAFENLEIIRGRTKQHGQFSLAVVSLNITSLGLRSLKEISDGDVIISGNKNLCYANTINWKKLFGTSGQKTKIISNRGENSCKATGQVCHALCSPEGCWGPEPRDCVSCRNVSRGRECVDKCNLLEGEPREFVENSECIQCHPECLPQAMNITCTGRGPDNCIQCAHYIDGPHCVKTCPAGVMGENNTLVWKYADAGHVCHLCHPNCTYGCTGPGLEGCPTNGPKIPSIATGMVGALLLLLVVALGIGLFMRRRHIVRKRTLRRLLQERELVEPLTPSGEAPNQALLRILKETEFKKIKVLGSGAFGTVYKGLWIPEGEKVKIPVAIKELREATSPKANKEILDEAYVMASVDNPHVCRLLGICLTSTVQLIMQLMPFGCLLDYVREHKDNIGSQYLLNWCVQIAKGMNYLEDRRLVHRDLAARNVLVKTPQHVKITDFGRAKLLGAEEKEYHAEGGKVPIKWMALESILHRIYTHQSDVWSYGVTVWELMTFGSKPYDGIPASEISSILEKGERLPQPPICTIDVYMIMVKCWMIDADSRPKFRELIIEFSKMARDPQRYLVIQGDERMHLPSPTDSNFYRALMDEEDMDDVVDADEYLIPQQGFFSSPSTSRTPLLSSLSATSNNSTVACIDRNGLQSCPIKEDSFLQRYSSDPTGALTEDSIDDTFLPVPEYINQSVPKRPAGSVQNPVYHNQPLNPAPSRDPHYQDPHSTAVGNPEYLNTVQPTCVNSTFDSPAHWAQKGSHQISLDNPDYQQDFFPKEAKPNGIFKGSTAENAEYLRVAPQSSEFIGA
Assay: Growth inhibitory activity of compounds on BaF3 cell lines stably transfected with kinase (MTS, 48 h)
Format: cell-based
Details: BaF3 cells stably transfected with EGFR L858R/T790M, read-out: IC50, growth inhibition, L858R/T790M
Procedure: The activity of compounds against various mutants of kinase EGFR was evaluated by their effect of inhibiting growth of BaF3 cell lines stably transfected with kinase. The specific test method was given as follows: […] 3) Compound test: cells were incubated into a 96-well culture plate, the volume of cytosol was 90 µL, and then 10 µL of the compound at each gradient concentration was added. […] OD values at 490 nm were measured by a microplate reader (VARIOSKAN FLASH, Thermo). […]
pIC50: −log10 of the molar value.

| compound.structure.string | pIC50 |
| --- | --- |
| CCc1cc(Nc2ncc(Cl)c(Nc3ccc4nccnc4c3N(C)S(C)(=O)=O)n2)c(OC)cc1N1CCC(N2CCN(C)CC2)CC1 | ≥ 7.30 |
| COc1cc(N2CCC(N3CCN(C)CC3)CC2)c(C)cc1Nc1ncc(Br)c(Nc2ccc3nccnc3c2N(C)S(C)(=O)=O)n1 | ≥ 7.30 |
| COc1cc(N2CCC(N(C)C)CC2)c(C)cc1Nc1ncc(Cl)c(Nc2ccc3nccnc3c2N(C)S(C)(=O)=O)n1 | ≥ 7.30 |
| CN1CCN(C2CCN(c3cccc(Nc4ncc(Br)c(Nc5ccc6nccnc6c5N(C)S(C)(=O)=O)n4)c3)CC2)CC1 | ≥ 7.30 |
| CN1CCN(Cc2cc(Nc3ncc(Br)c(Nc4ccc5nccnc5c4N(C)S(C)(=O)=O)n3)cc(C(F)(F)F)c2)CC1 | ≥ 7.30 |
| COc1cc2c(cc1Nc1ncc(Br)c(Nc3ccc4nccnc4c3N(C)S(C)(=O)=O)n1)CN(C)CC2 | 6.30 to 7.30 |
